Test system: MDA-MB-231 human breast cancer cells
Test: Cell proliferation assay (CellTiter-Glo, 72 hours treatment)
Type: cell-based
Conditions: Homo sapiens; MDA-MB-231 cells, 72 hours at 37° C., CellTiter-Glo; read-out: MDA-MB-231 cell proliferation assay (IC50)
pIC50: −log10 of the molar value.
Observation type: pIC50

[[record]]
molecule = "COc1nc(C#N)cc2c1[C@]1(O)[C@H](O)[C@H](CNCC(F)F)[C@@H](c3ccccc3)[C@]1(c1ccc(C#N)cc1)O2 (racemic) [197F]"
obs_value = "6.00 to 7.00"

[[record]]
molecule = "COc1nc(C#N)cc2c1[C@]1(O)[C@H](O)[C@H](CN3CCC3)[C@@H](c3ccccc3)[C@]1(c1ccc(C#N)cc1)O2 (single isomer, unassigned) [212F]"
obs_value = "> 7.00"


Enquiry: Observed pIC50 on MDA-MB-231 human breast cancer cells for COc1nc(C#N)cc2c1[C@]1(O)[C@H](O)[C@H](CN3CC(C(F)F)C3)[C@@H](c3ccccc3)[C@]1(c1ccc(C#N)cc1)O2 (racemic) [218F] , please.
Return: > 7.00
